Field: pKd. Provide a value for each of the variants that follow.
B1: scFv; the commonest letter at each place (parent)
chain 1: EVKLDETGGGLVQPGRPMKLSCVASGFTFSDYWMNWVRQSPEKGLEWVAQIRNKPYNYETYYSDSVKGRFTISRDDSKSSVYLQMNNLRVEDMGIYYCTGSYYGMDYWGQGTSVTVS
chain 2: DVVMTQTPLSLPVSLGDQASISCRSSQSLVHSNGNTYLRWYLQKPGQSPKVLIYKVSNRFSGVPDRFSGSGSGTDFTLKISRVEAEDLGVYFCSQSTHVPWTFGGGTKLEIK

# Variants of: B1
# ASSAY PROTOCOL: Kd (Tite-Seq)
# CONDITION SUMMARY: with fluorescein; format: scFv 4-4-20, heavy + light
Hey, just a heads up that pKd is the negative log base 10 of the concentration in molar.

Can you look up the measured pKd of chain 1 G100S Y102K for me? 7.47

Can you look up the measured pKd of chain 1 S30D V37F for me? 5.36
